Compiled literature Ki, tested on UniProtKB P00742.
measure_name: Ki (nM)

O=C(Nc1ccc(N2CCNCC2=O)cc1)c1nc2ccccc2n1Cc1cc(-c2ccc(Cl)s2)on1
141
COC(=O)c1cc(C(=O)NC2CCN(C(C)C)CC2)n(CC(=O)Nc2ccc(Cl)cn2)n1
10
NCc1ccc(Cl)cc1CNC(=O)[C@@H]1CCN1C(=O)[C@@H](CCC(=O)N1CCOCC1)NS(=O)(=O)Cc1ccccc1
1.7
CC(C)N1CCC(NC(=O)c2nc(C(N)=O)cn2Cc2cc(-c3ccc(Cl)s3)on2)CC1
46
COC(=O)c1cccc2c(C(=O)NC3CCN(C(C)C)CC3)nn(Cc3cc(-c4ccc(Cl)s4)on3)c12
17

(A) O=C(NCCC(=O)n1ccc2cc(-n3ccncc3=O)ccc21)c1ccc(Cl)s1
(B) N=C(N)c1ccc(/C=C2/CCCCC/C(=C\c3ccc(C(=N)N)cc3)C2=O)cc1
(C) O=C(Nc1ccc(-n2ccc(=O)cc2)cc1)c1nc2ccccc2n1Cc1cc(-c2ccc(Cl)s2)on1
(D) COCCOC(=O)c1ccc2c(c1)c(C(=O)NC1CCN(C(C)C)CC1)nn2Cc1cc(-c2ccc(Cl)s2)on1
(E) CC(C)N1CCC(N(CC(=O)N2CCOCC2)S(=O)(=O)CCNC(=O)c2ccc(Cl)s2)CC1
Write the entries in order, lowest recorded Ki first. Answer by writing out the labels in the requested order. E, A, C, D, B
(E: 5 nM, A: 8 nM, C: 12 nM, D: 43 nM, B: 128 nM)

(P) CC(C)N1CCC(NC(=O)c2cc(C(=O)N3CCC(O)CC3)nn2Cc2cc(-c3ccc(Cl)s3)on2)CC1
(Q) O=C(Nc1ccc(N2CCOCC2=O)cc1)c1cc(-c2ccco2)n(Cc2cc(-c3ccc(Cl)s3)on2)n1
Name the one with the greater Ki value, either P or Q as given. Use the label to indicate which entry you chose. P
(P: 163 nM, Q: 11 nM)

(A) CC(C)N1CCC(NC(=O)c2nc(C(=O)N(C)CCO)cn2Cc2cc(-c3ccc(Cl)s3)on2)CC1
(B) CC(C)N1CCC(NC(=O)c2nc3c(C(=O)NCCO)cccc3n2CC(=O)Nc2ccc(Cl)cn2)CC1
(C) CC(C)N1CCC(NC(=O)c2cc(C(=O)N3CCCOCC3)nn2CC(=O)Nc2ccc(Cl)cn2)CC1
Write the entries in order, lowest recorded Ki first. Answer by writing out the labels in the requested order. B, C, A

* * *

pKi: −log10 of the molar value.
Compiled literature pKi, tested on Coagulation factor X (Homo sapiens).
measure_name: pKi

CC(C)N1CCC(NC(=O)c2ccc(C(=O)N3CCCOCC3)n2CC(=O)Nc2ccc(Cl)cn2)CC1
6.04
COC(=O)c1cc(NC(=O)CCNC(=O)c2ccc(Cl)s2)ccc1N1CCOCC1=O
6.58

(a) CC(C)N1CCC(NC(=O)c2nc3c(C(=O)OCC4CC4)cccc3n2CC(=O)Nc2ccc(Cl)cn2)CC1
(b) CN(C)C(=O)N1CCC(CC[C@@H](NS(=O)(=O)Cc2ccccc2)C(=O)N[C@@H](CCC2CCNCC2)C(=O)NCc2ccc(C(=N)N)cc2)CC1
(c) O=C(NCCS(=O)(=O)NC1CNC1)c1ccc(Cl)s1
(d) COc1ccc(NC(=O)c2ccc(N(C)C(C)=N)cc2)c(C(=O)Nc2ccc(Cl)cn2)c1
(e) CC(C)N1CCC(NS(=O)(=O)CCNC(=O)c2ccc(Br)s2)CC1
Write the entries in order, lowest recorded pKi first. Answer by writing out the labels in the requested order. c, b, a, e, d
(c: 4.69, b: 5.60, a: 7.82, e: 8.22, d: 9.00)

(I) NCc1ccc(Cl)cc1CNC(=O)[C@@H]1CCCN1C(=O)[C@@H](CC(=O)N1CCS(=O)(=O)CC1)NS(=O)(=O)Cc1ccccc1
(II) CC(C)N1CCC(NS(=O)(=O)CCNC(=O)c2ccc(Cl)cc2)CC1
(III) COC(=O)c1sc(OCC(F)(F)F)c2nc(C(=O)NC3CCN(C(C)C)CC3)n(Cc3cc(-c4ccc(Cl)s4)on3)c12
Write the entries in order, lowest recorded pKi first. Answer by writing out the labels in the requested order. III, II, I

(A) CC(C)N1CCC(NC(=O)c2nc3c(C(=O)N4CCC(F)(F)CC4)cccc3n2CC(=O)Nc2ccc(Cl)cn2)CC1
(B) Cc1c(C=O)c(C)n(Cc2cc(-c3ccc(Cl)s3)on2)c1C(=O)NC1CCN(C(C)C)CC1
(C) COC(=O)c1cnc2c(c1)cc(C(=O)NC1CCN(C(C)C)CC1)n2Cc1cc(-c2ccc(Cl)s2)on1
(D) Cc1ncc(COc2ccc(C(=N)N)cc2)c(CO)c1OCc1ccc(C(=N)N)cc1
Write the entries in order, lowest recorded pKi first. Answer by writing out the labels in the requested order. D, C, B, A
(D: 4.96, C: 7.26, B: 7.62, A: 8.07)

* * *

Compiled literature pKi, tested on Coagulation factor X (Homo sapiens).
pKi: −log10 of the molar value.
measure_name: pKi

Known results for molecules:
CC(C)N1CCC(NC(=O)c2cc3cc(C(=O)N4CCCOCC4)ccc3n2CC(=O)Nc2ccc(Cl)cn2)CC1
7.66
Cc1nc(C(N)=O)n(Cc2cc(-c3ccc(Cl)s3)on2)c1C(=O)NC1CCN(C(C)C)CC1
7.66

(a) CC(C)N1CCC(N(CC(F)(F)F)S(=O)(=O)CCNC(=O)c2ccc(Cl)s2)CC1
(b) CC(C)N1CCC(NC(=O)c2cc(C(=O)N3CCC3)n(Cc3cc(-c4ccc(Cl)s4)on3)n2)CC1
Name the one with the greater pKi value, either a or b as given. Use the label to indicate which entry you chose. a
(a: 7.82, b: 6.85)

* * *

pKi: −log10 of the molar value.
Compiled literature pKi, tested on Coagulation factor X (Homo sapiens).
measure_name: pKi

NCc1ccc(Cl)cc1CNC(=O)[C@@H]1C[C@@H](N)CN1C(=O)[C@@H](CC(=O)N1CCNCC1)NS(=O)(=O)Cc1ccccc1
8.55
CC(C)N1CCC(NC(=O)c2cc(-c3cccs3)n(Cc3cc(-c4ccc(Cl)s4)on3)n2)CC1
7.49
CC(C)N1CCC(NC(=O)c2nn(Cc3cc(-c4ccc(Cl)s4)on3)c3ccc(C(=O)NC[Si](C)(C)C)cc23)CC1
7.27

(P) CC(C)N1CCC(NC(=O)c2nc3ccc(C(=O)OCCO)cc3n2Cc2cc(-c3ccc(Cl)s3)on2)CC1
(Q) COC(=O)c1cccc(CN(C(=O)c2ccc(N=C(N)N)cc2)C2CCN(S(=O)(=O)/C=C/c3ccc(Cl)cc3)C2)c1 (centres unmarked)
Compare P and Q and name the one whose reported pKi is smaller. Use the label to indicate which entry you chose. Q
(Q: 5.11, P: 6.92)

(I) CC(C)N1CCC(NC(=O)c2nc(C(=O)OC(C)(C)C)cn2Cc2cc(-c3ccc(Cl)s3)on2)CC1
(II) O=C(Nc1ccc(N2CCCC2=O)cc1)c1nn(Cc2cc(-c3ccc(Cl)s3)on2)c2ccccc12
(III) Cc1oc(=O)oc1COC(=O)c1ccc2c(c1)cc(C(=O)NC1CCN(C(C)C)CC1)n2Cc1cc(-c2ccc(Cl)s2)on1
(IV) CC(C)N1CCC(NC(=O)c2nc3cc(C(=O)O)ccc3n2Cc2cc(-c3ccc(Cl)s3)on2)CC1
Highest pKi first, then in falling order down to the smallest. Answer by writing out the labels in the requested order. IV, III, II, I
(IV: 8.52, III: 7.96, II: 7.72, I: 6.76)

(P) CC(C)N1CCC(NC(=O)c2nc3c(C(=O)N(C)CCO)cccc3n2Cc2cc(-c3ccc(Cl)s3)on2)CC1
(Q) COC(=O)c1cccc(CS(=O)(=O)N[C@H](CCCc2ccccc2)C(=O)N[C@@H](CCC2CCNCC2)C(=O)NCc2ccc(C(=N)N)cc2)c1
Name the one with the greater pKi value, either P or Q as given. Use the label to indicate which entry you chose. P
(P: 7.59, Q: 5.23)

* * *

Compiled literature Ki, tested on Coagulation factor X (Homo sapiens).
measure_name: Ki (nM)

COCCc1ncc(C(=O)NC2CCN(C(C)C)CC2)n1Cc1cc(-c2ccc(Cl)s2)on1
401
N=C(N)c1ccc(COc2c(CF)ncc(CNc3ccc(C(=N)N)cc3)c2CF)cc1
665

(I) CC(=N)N(C)c1ccc(C(=O)Nc2ccc(Cl)cc2C(=O)Nc2ccc(Cl)cn2)c(F)c1
(II) C[C@@H](NC(=O)[C@H](NC(=O)c1cccc(C(=N)N)c1)c1ccccc1)c1cccc2ccccc12
(III) Cc1ncc(CNc2ccc(C(=N)N)cc2)cc1OCc1cccc(C(=N)N)c1
(IV) CC(=O)N1CCC(CCC[C@@H](NS(=O)(=O)Cc2ccccc2)C(=O)N[C@@H](CCC2CCNCC2)C(=O)NCc2ccc(C(=N)N)cc2)CC1
Highest Ki first, then in falling order down to the smallest. Answer by writing out the labels in the requested order. IV, III, II, I
